Values from the supplement of paper PMC7877785

assay: self-splicing fitness, log relative to wild type (ln ratio); higher = more splicing; Tetrahymena group I intron in knt gene, E. coli kanamycin selection, DiMSum; sequences stand for … in CUCUCU…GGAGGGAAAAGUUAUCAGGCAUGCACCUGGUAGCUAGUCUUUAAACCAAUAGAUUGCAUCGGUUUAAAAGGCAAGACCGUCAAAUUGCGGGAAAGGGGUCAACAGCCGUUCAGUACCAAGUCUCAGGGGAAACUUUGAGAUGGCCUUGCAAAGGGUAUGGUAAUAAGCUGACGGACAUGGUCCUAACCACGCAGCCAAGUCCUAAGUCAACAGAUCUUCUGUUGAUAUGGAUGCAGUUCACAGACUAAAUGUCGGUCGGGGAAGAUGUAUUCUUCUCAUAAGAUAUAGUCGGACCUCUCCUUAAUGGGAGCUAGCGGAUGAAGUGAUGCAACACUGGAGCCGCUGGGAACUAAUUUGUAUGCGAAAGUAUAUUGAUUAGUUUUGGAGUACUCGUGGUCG; settings: 37 °C;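 further: selection with 25 µg/mL kanamycin versus none on LB agar overnight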
parameter_measured: self-splicing fitness (ln)
Answer with the value's number alone.

Query: Fill in self-splicing fitness (ln) for record AUAGAGCAAUAUUACGAAAG
Reply: -2.05

====

experiment: self-splicing fitness, log relative to wild type (ln ratio); higher = more splicing; Tetrahymena group I intron in knt gene, E. coli kanamycin selection, DiMSum; sequences stand for … in CUCUCU…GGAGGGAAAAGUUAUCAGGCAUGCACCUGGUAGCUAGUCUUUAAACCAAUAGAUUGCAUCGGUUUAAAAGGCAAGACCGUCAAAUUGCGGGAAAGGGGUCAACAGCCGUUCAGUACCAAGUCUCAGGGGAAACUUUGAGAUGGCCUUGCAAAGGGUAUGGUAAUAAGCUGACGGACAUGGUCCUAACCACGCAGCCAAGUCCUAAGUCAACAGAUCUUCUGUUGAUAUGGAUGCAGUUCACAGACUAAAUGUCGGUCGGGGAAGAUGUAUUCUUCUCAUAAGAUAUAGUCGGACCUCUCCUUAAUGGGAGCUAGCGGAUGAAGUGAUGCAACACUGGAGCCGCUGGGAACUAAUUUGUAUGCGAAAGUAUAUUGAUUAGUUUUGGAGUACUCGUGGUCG; settings: 37 °C
parameter_measured: self-splicing fitness (ln)

Query: Fill in self-splicing fitness (ln) for record AAUGAGCAAUAUUACGGUCU
Reply: -0.956

Query: Fill in self-splicing fitness (ln) for record ACGAAGCAAUAUUACGAAGA
Reply: -3.2

Attention now shifts to the item below.
Query: Fill in self-splicing fitness (ln) for record UGGCAGCAAUAUUACGAGAG
Reply: -2.74

====

test: self-splicing fitness, log relative to wild type (ln ratio); higher = more splicing; Tetrahymena group I intron in knt gene, E. coli kanamycin selection, DiMSum; sequences stand for … in CUCUCU…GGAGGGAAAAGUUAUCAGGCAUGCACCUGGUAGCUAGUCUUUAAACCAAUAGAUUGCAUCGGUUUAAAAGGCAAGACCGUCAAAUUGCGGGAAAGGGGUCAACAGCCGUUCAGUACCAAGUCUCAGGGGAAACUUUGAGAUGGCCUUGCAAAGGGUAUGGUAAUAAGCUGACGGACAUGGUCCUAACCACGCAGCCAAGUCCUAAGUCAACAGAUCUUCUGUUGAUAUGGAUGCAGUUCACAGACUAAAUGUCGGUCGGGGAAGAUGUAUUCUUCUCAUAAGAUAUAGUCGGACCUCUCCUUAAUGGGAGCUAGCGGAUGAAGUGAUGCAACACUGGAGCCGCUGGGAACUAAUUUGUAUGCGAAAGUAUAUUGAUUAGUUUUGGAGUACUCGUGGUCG; conditions: 37 °C
# reported self-splicing fitness (ln); entries follow
Answer with the value's number alone.

Query: Fill in self-splicing fitness (ln) for record GCCCAGCAAUAUUACGCUGA
Reply: -0.784

Query: Fill in self-splicing fitness (ln) for record ACCUAGCAAUAUUACGGUGA
Reply: -0.814

Query: Fill in self-splicing fitness (ln) for record AUUGAGCAAUAUUACGGACG
Reply: -1.96

Query: Fill in self-splicing fitness (ln) for record AGCAAGCAAUAUUACGUUUA
Reply: -1.96

Query: Fill in self-splicing fitness (ln) for record GCGUAGCAAUAUUACGGAUG
Reply: -1.98

====

assay: self-splicing fitness, log relative to wild type (ln ratio); higher = more splicing; Tetrahymena group I intron in knt gene, E. coli kanamycin selection, DiMSum; sequences stand for … in CUCUCU…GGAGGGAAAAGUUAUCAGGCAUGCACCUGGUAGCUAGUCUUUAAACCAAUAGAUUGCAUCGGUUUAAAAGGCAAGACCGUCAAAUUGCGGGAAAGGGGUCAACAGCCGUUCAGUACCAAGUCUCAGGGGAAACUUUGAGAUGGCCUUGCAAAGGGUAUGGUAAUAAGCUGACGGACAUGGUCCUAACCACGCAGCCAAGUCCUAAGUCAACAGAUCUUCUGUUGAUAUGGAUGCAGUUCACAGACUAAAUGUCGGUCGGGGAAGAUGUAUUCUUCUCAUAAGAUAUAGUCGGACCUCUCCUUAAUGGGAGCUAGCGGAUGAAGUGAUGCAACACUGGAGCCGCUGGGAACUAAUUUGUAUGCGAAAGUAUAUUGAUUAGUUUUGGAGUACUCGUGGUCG; conditions: 37 °C
# reported self-splicing fitness (ln); entries follow

Consider the reported self-splicing fitness (ln) for these sequences:
Query: Fill in self-splicing fitness (ln) for record AUAAAGCAAUAUUACGGGCG
Reply: -0.567

Query: Fill in self-splicing fitness (ln) for record UUCUAGCAAUAUUACGAUCA
Reply: -0.172

Query: Fill in self-splicing fitness (ln) for record AUUUAGCAAUAUUACGGGUC
Reply: -2.23

Query: Fill in self-splicing fitness (ln) for record CACAAGCAAUAUUACGCGUU
Reply: -1.3

Query: Fill in self-splicing fitness (ln) for record AAGGAGCAAUAUUACGGGCU
Reply: -2.53

Attention now shifts to the item below.
Query: Fill in self-splicing fitness (ln) for record GCCUAGCAAUAUUACGCAAC
Reply: -1.21

====

experiment: self-splicing fitness, log relative to wild type (ln ratio); higher = more splicing; Tetrahymena group I intron in knt gene, E. coli kanamycin selection, DiMSum; sequences stand for … in CUCUCU…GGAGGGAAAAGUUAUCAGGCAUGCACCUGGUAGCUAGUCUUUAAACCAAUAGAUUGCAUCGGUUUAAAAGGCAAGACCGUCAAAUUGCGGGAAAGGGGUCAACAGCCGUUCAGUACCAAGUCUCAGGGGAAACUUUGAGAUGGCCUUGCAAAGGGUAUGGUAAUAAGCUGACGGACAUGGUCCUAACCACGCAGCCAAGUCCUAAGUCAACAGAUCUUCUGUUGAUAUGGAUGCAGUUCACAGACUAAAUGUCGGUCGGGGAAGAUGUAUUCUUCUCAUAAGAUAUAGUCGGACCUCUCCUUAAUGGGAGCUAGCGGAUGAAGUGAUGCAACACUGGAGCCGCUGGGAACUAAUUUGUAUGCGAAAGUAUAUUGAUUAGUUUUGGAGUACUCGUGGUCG; conditions: 37 °C
# reported self-splicing fitness (ln); entries follow

Consider the reported self-splicing fitness (ln) for these sequences:
Query: Fill in self-splicing fitness (ln) for record GUUUAGCAAUAUUACGAGCC
Reply: -1.56

Query: Fill in self-splicing fitness (ln) for record GUAAAGCAAUAUUACGGGUA
Reply: -0.464

Query: Fill in self-splicing fitness (ln) for record CGUGAGCAAUAUUACGCACG
Reply: -2.94

Query: Fill in self-splicing fitness (ln) for record GGGCAGCAAUAUUACGUUAU
Reply: -0.345

Query: Fill in self-splicing fitness (ln) for record ACGAAGCAAUAUUACGAUGG
Reply: -1.17

Query: Fill in self-splicing fitness (ln) for record GGCCAGCAAUAUUACGUCGC
Reply: -0.0357

More entries:
Query: Fill in self-splicing fitness (ln) for record GCUUAGCAAUAUUACGUACU
Reply: -0.0558

Query: Fill in self-splicing fitness (ln) for record AGUCAGCAAUAUUACGGAAA
Reply: -2

Query: Fill in self-splicing fitness (ln) for record GCUUAGCAAUAUUACGAAGC
Reply: -4.66

====

# reported self-splicing fitness (ln); entries follow
test: self-splicing fitness, log relative to wild type (ln ratio); higher = more splicing; Tetrahymena group I intron in knt gene, E. coli kanamycin selection, DiMSum; sequences stand for … in CUCUCU…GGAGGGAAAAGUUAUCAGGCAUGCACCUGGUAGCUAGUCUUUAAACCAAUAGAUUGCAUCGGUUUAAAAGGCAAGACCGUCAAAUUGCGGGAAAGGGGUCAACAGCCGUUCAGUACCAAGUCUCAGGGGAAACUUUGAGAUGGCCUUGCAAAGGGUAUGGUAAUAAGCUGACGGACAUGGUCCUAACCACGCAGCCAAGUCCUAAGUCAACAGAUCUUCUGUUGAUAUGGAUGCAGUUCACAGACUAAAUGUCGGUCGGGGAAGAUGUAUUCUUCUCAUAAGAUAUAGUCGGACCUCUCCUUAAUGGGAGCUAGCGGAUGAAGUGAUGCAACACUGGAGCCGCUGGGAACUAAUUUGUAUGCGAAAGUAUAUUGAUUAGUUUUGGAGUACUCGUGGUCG; settings: 37 °C
Answer with the value's number alone.

Query: Fill in self-splicing fitness (ln) for record UUUGAGCAAUAUUACGAGGG
Reply: -0.691

Query: Fill in self-splicing fitness (ln) for record AAGCAGCAAUAUUACGGAAA
Reply: -2.26

Query: Fill in self-splicing fitness (ln) for record CGGCAGCAAUAUUACGUGAU
Reply: -1.57

More entries:
Query: Fill in self-splicing fitness (ln) for record CGUAAGCAAUAUUACGUGCA
Reply: 0.102

Query: Fill in self-splicing fitness (ln) for record UCUGAGCAAUAUUACGAGUA
Reply: -2.17

Query: Fill in self-splicing fitness (ln) for record CCUCAGCAAUAUUACGUACU
Reply: -1.98

Query: Fill in self-splicing fitness (ln) for record CGGCAGCAAUAUUACGAAAU
Reply: -2.76

Query: Fill in self-splicing fitness (ln) for record CCAUAGCAAUAUUACGGAGG
Reply: -0.997

Query: Fill in self-splicing fitness (ln) for record ACUCAGCAAUAUUACGGGCC
Reply: -1.13

Query: Fill in self-splicing fitness (ln) for record GACUAGCAAUAUUACGAGGU
Reply: -1.64

Query: Fill in self-splicing fitness (ln) for record UAAUAGCAAUAUUACGACUG
Reply: 0.0819
